# self-cleavage listing for each entry below
B1: Hairpin Ribozyme (parent)
chain: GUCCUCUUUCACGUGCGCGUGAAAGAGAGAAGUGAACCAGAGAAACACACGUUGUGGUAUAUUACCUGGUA

# Variants of: B1
# TEST_METHOD_NOTES: self-cleavage, relative activity (ratio to wild type); higher = more cleavage; co-transcriptional
The response must contain the number and no unit.

Which self-cleavage value is on record for A30U G69U ?
0.149

Fill in: self-cleavage of A43U U60C is ___
0.221

Tell me the measured self-cleavage of G17C C65A , please.
0.748

Fill blank: measured self-cleavage of the variant C16U A43C is ____.
0.174
